Hey, just so you know, these numbers are from patent US11780826B2.

test system: Bovine cardiac myofibrils; experiment: In vitro model of dose-dependent myofibril ATPase modulation (AC1.4, pyruvate kinase/lactate dehydrogenase-coupled ATPase assay at pCa25); format: biochemical; settings: concentration at which ATPase activity was 1.4-fold higher than the bottom of the dose curve, mean of a minimum of two independent tests

| Compound | Value Units | AC1.4 |
| --- | --- | --- |
| C[C@@H](NC(=O)[C@H]1CCCN1C(=O)[C@@H]1CN(S(=O)(=O)N2CC(C#N)C2)CCO1)c1ccc(Cl)cc1 [Example 291] | µM | 0.756 |
| N#CC1CN(S(=O)(=O)N2CCC[C@H](C(=O)N3CCC[C@@H]3C(=O)NCc3ccc(C(F)F)cc3)C2)C1 [Example 261] | µM | 0.6461 |
| Cc1cc(C(=O)N2[C@@H](C(=O)N[C@@H](c3cc(F)c(C(F)(F)F)cc3F)C3CC3)C[C@H]3C[C@H]32)c(C(C)O)cn1 (stereo partly drawn) [Example 822] | µM | 5.894 |
| CS(=O)(=O)c1cccc(C(=O)N2[C@@H](C(=O)N[C@@H](c3ccc(Cl)c(F)c3)C3COC3)C[C@H]3C[C@H]32)c1 [Example 264] | µM | 0.6615 |
| O=C(N[C@@H](c1ccc(C(F)(F)F)cc1F)C1CC1)[C@H]1CCCN1C(=O)c1cccc(C(O)(O)C(F)(F)F)c1 [Example 523] | µM | 2.582 |
| Cc1ccc(CNC(=O)[C@H]2CCCN2C(=O)[C@H]2CCCN(S(=O)(=O)N3CC(C#N)C3)C2)cc1Cl [Example 130] | µM | 0.214 |

---

system: Bovine cardiac myofibrils; experiment: In vitro model of dose-dependent myofibril ATPase modulation (AC1.4, pyruvate kinase/lactate dehydrogenase-coupled ATPase assay at pCa25); type: biochemical; details: concentration at which ATPase activity was 1.4-fold higher than the bottom of the dose curve, mean of a minimum of two independent tests
Reported Property: log10 AC1.4 (log10 of the value in µM)

| Compound | log10 AC1.4 |
| --- | --- |
| Cc1cc(F)cc(CNC(=O)[C@H]2CCCN2C(=O)[C@H]2CCCN(S(=O)(=O)N3CC(C#N)C3)C2)c1 | 0.37 |
| Cc1ccc(CNC(=O)[C@H]2CCCN2C(=O)[C@H]2CCCN(S(=O)(=O)N3CC(C#N)C3)C2)c(Cl)c1 | -0.44 |
| N#CC1CN(S(=O)(=O)N2CCO[C@H](C(=O)N3CCC[C@@H]3C(=O)NCc3ccc(Cl)cc3F)C2)C1 | -0.47 |
| C[C@@H](NC(=O)[C@H]1CCCN1C(=O)[C@H]1CCCN(S(=O)(=O)N2CC(C#N)C2)C1)c1ccc(F)cc1F | -0.05 |
| CS(=O)(=O)c1cccc(C(=O)N2CCC[C@@H]2C(=O)NC(c2ccc(C(F)(F)F)cc2)C2CNC(=O)C2)c1 (some centres unmarked) | 0.29 |
| N#CC1CN(S(=O)(=O)N2CCC[C@H](C(=O)N3CCC[C@@H]3C(=O)NCc3ccc(C(F)(F)F)cn3)C2)C1 | 0.09 |
| N#CC1CN(S(=O)(=O)N2CCC[C@H](C(=O)N3CCC[C@@H]3C(=O)NCc3cc(Cl)cc(C(F)(F)F)c3)C2)C1 | 0.42 |
| Cc1ccnc(C(=O)N2[C@@H](C(=O)N[C@@H](c3cc(F)c(C(F)(F)F)cc3F)C3CC3)C[C@H]3C[C@H]32)c1 | 0.62 |
| O=C(NCc1ccc(C(F)(F)F)cc1)[C@H]1CCCN1C(=O)[C@H]1CCCN(S(=O)(=O)N2CC(Oc3ccc(Cl)cc3)C2)C1 | 0.20 |
| N#CC1CN(S(=O)(=O)N2CCC[C@H](C(=O)N3CCC[C@@H]3C(=O)NCc3ccc(C4CC4)cc3)C2)C1 | 0.26 |
| Cc1cc(C(=O)N2[C@@H](C(=O)N[C@@H](c3cc(F)c(C(F)(F)F)cc3F)C3COC3)C[C@H]3C[C@H]32)c2[nH]ncc2c1 | 0.00 |
| CC1(O)CN(S(=O)(=O)N2CCC[C@H](C(=O)N3CCC[C@@H]3C(=O)NCc3ccc(C(F)(F)F)cc3)C2)C1 | 0.83 |
| Cc1cnn(C)c1C(=O)N1[C@@H](C(=O)N[C@@H](c2cc(F)c(C(F)(F)F)cc2F)C2COC2)C[C@H]2C[C@H]21 | 0.62 |
| N#CC1CN(S(=O)(=O)N2CCC[C@H](C(=O)N3C[C@H]4C[C@H]4[C@@H]3C(=O)NCc3ccc(C(F)(F)F)cc3)C2)C1 | -0.87 |
| CS(=O)(=O)C1CN(S(=O)(=O)N2CCC[C@H](C(=O)N3CCC[C@@H]3C(=O)NCc3ccc(C(F)(F)F)cc3)C2)C1 | -1.04 |
| CS(=O)(=O)c1ccnc(C(=O)N2[C@@H](C(=O)N[C@@H](c3cc(F)c(Cl)cc3F)C3CC3)C[C@H]3C[C@H]32)c1 | -0.39 |
| C[C@@H](NC(=O)[C@H]1CCCN1C(=O)[C@H]1CCCN(S(=O)(=O)N2CC(C#N)C2)C1)c1ccc(C(F)F)cc1F | -0.79 |
| O=C(NCc1ccc(C(F)(F)F)cc1)[C@H]1CCCN1C(=O)[C@H]1CCCN(S(=O)(=O)N2CC(c3cccc(C(F)(F)F)c3)C2)C1 | 0.91 |
| O=C(N[C@@H](c1ccc(C(F)(F)F)cc1F)C1CC1)[C@H]1CCCCN1C(=O)c1ccc2c(c1)S(=O)(=O)CC2 | 0.66 |
| NC(=O)C1(c2cccc(C(=O)N3[C@@H](C(=O)N[C@@H](c4ccc(C(F)(F)F)cc4F)C4COC4)C[C@H]4C[C@H]43)c2)CC1 | 0.01 |
| CCNc1ccc(C)cc1C(=O)N1CCC[C@@H]1C(=O)N[C@@H](c1ccc(C(F)(F)F)cc1F)C1CC1 | -0.77 |
| CC[C@@H](NC(=O)[C@H]1CCCN1C(=O)[C@H]1CCCN(S(=O)(=O)N2CC(C#N)C2)C1)c1cc(F)cc(F)c1 | -0.24 |
| NC(=O)C1(c2cccc(C(=O)N3[C@@H](C(=O)N[C@@H](c4cc(F)c(Cl)cc4F)C4COC4)C[C@H]4C[C@H]43)c2)CC1 | -0.47 |
| C[C@@H](NC(=O)[C@H]1CCCN1C(=O)[C@H]1CCCN(S(=O)(=O)N2CC(S(C)(=O)=O)C2)C1)c1ccc(F)cc1F | -0.06 |
| N#CC1CN(S(=O)(=O)N2CCC[C@H](C(=O)N3CCC[C@@H]3C(=O)NCc3ccc(C(F)(F)F)nc3)C2)C1 | 0.17 |
| CS(=O)(=O)c1cccc(C(=O)N2CCC[C@@H]2C(=O)N[C@@H](c2ccc(C(F)(F)F)cc2F)C2(F)COC2)c1 | 0.69 |
